The origin of these recorded values is PubChem BioAssay (NCATS).

Experiment: Quantitative High-Throughput drug screen in 47 multiple myeloma cell lines against the NCATS MIPE library collection: MOLP8_DSMZ cell viability assay (AID 1918977); also: nearly all actives have a fitted effect of over 45% in size
Conditions: MOLP8 myeloma viability, CellTiter-Glo ATP luminescence, 48 h; series mostly up to 45.8 µM
Records with an inconclusive call do not appear. Active and inactive are the calls of the source. Calls follow the shape of the dose curve; as a rule, active = well fitted cell-killing curve with a large enough effect; inconclusive = small, poorly fitted or top-dose-only effect, or effect the other way; inactive = no such curve, though single readings can be large or run the other way.
// allowed return values: active, inactive

Solved entries:
| compound | qualitative_label |
| --- | --- |
| Clc1ccc2ncc(-c3cccc(NC4CNC4)n3)n2c1 | active |
| CC(NCc1ccc2c(c1)nc(NC(=O)c1ccc(-c3cn[nH]c3)s1)n2CC(C)(C)O)C(C)(C)C (stereo not given) | active |
| Cc1[nH]nc2ccc(-c3cncc(OC[C@@H](N)Cc4ccccc4)c3)cc12 | active |
| CC(C)c1cnn2c(NCc3ccccc3)cc(N[C@@H](CO)[C@H](O)CO)nc12 | active |
| O=C(C=Cc1cccnc1)NCCCCC1CCN(C(=O)c2ccccc2)CC1 | inactive |

q: Assay outcome for c1cc(-c2cnn3cc(-c4ccc(OCCN5CCCCC5)cc4)cnc23)ccn1 : what was it?
a: active

q: Assay outcome for CC=CC1=C(C(=O)O)N2C(=O)[C@H](NC(=O)[C@H](N)c3ccc(O)cc3)[C@@H]2SC1 : what was it?
a: inactive

q: Assay outcome for CCc1c2c(nc3ccc(O)cc13)-c1cc3c(c(=O)n1C2)COC(=O)[C@]3(O)CC : what was it?
a: active

q: Assay outcome for C=CC(=O)Nc1cc2c(Nc3ccc(F)c(Cl)c3)ncnc2cc1C#CC(C)(C)N1CCN(C)CC1 : what was it?
a: active

###

Test system: CRL-7250
Test: Cytotoxic Profiling of Annotated Libraries Using Quantitative High-Throughput Screening (AID 1296008); also: nearly all actives have a fitted effect of over 60% in size
Conditions: Five cell lines viability, CellTiter-Glo ATP luminescence, 48-72 h
Records with an inconclusive call do not appear. The source made the active and inactive calls. Calls follow the shape of the dose curve; as a rule, active = well fitted inhibition curve with a large enough effect; inconclusive = small, poorly fitted or top-dose-only effect; inactive = flat fitted curve, though single readings scatter.
// allowed return values: active, inactive

| molecule | qualitative_label |
| --- | --- |
| CC(C)c1cnn2c(NCc3ccccc3)cc(N[C@@H](CO)[C@H](O)CO)nc12 | active |
| COc1cc(C)c(Sc2cnc(NC(=O)c3ccc(CNC(C)C(C)C)cc3)s2)cc1C(=O)N1CCN(C(C)=O)CC1 (centres undefined) | active |
| Nc1nc(Nc2ccc(S(N)(=O)=O)cc2)nn1C(=O)c1c(F)cccc1F | active |
| Cn1cc(-c2ccncc2)c(-c2ccc(OCc3ccc4ccccc4n3)cc2)n1 | active |
| O=C(NC1CCNCC1)c1[nH]ncc1NC(=O)c1c(Cl)cccc1Cl | active |

q: Assay outcome for COc1cc(C(=O)N2CCC(N3CCN(C)CC3)CC2)ccc1Nc1ncc2c(n1)N(C)c1ccccc1C(=O)N2C : what was it?
a: active

q: Assay outcome for CN(C)CC(C)(C)CNc1nn2c(-c3ccccc3)nnc2cc1C1CCC1 : what was it?
a: inactive

q: Assay outcome for Cc1nc2cnc3ccc(C#Cc4cccnc4)cc3c2n1-c1ccc(C(C)(C)C#N)cc1 : what was it?
a: active

q: Assay outcome for Cc1nc(N)ncc1-c1nc(N2CCOCC2)c2sc(C(C)(C)O)cc2n1 : what was it?
a: active

###

Assay: qHTS of pediatric cancer cell lines to identify multiple opportunities for drug repurposing: Primary screen for TC32 cells (AID 1347089); also: nearly all actives have a fitted effect of over 60% in size
Settings: TC32 Ewing sarcoma viability, CellTiter-Glo luminescence, 48 h; series mostly up to 45.8 µM
Inconclusive results are not listed. Calls of active or inactive are those of the source. Calls follow the shape of the dose curve; as a rule, active = well fitted cell-killing curve with a large enough effect; inconclusive = small, poorly fitted or top-dose-only effect; inactive = flat fitted curve, though single readings scatter.
// allowed return values: active, inactive

Solved entries:
| smiles_representation | qualitative_label |
| --- | --- |
| NC(=O)c1cccc2cn(-c3ccc([C@@H]4CCCNC4)cc3)nc12 | active |
| COC(=O)c1ccc2c(C(=Nc3ccc(N(C)C(=O)CN4CCN(C)CC4)cc3)c3ccccc3)c(O)[nH]c2c1 | active |

q: Assay outcome for CC1=C(CO)C(=O)O[C@@H]([C@@H](C)[C@H]2CC[C@H]3[C@@H]4C[C@H]5O[C@]56[C@@H](O)C=CC(=O)[C@]6(C)[C@@H]4CC[C@]23C)C1 : what was it?
a: active

q: Assay outcome for Cc1ccc(-c2ncn(-c3ccc(Nc4nccc(-c5cccc(N6CCOCC6)c5)n4)cc3)n2)cn1 : what was it?
a: active
